Measurement record for Type-1 angiotensin II receptor (Homo sapiens, UniProt P30556); quantity recorded: AC50.

Given the molecule CC[C@H](C)C(=O)O[C@H]1C[C@H](O)C=C2C=C[C@H](C)[C@H](CC[C@@H](O)C[C@@H](O)CC(=O)O)[C@H]21 , what is its reported AC50? > 30 µM

I'd like to know its AC50. The molecule in question is CC(C)(Oc1ccc(C2CC2(Cl)Cl)cc1)C(=O)O (stereo not drawn) [CIPROFIBRATE] > 30 µM

Please look up its AC50: CC1=CC(=O)c2ccccc2C1=O > 10 µM

Which measured AC50 value corresponds to CC(=O)O[C@@]12CO[C@@H]1C[C@H](O)[C@@]1(C)C(=O)[C@H](O)C3=C(C)[C@@H](OC(=O)[C@H](O)[C@@H](NC(=O)OC(C)(C)C)c4ccccc4)C[C@@](O)([C@@H](OC(=O)c4ccccc4)[C@H]21)C3(C)C [DOCETAXEL ANHYDROUS] ? > 30 µM

Sample NC1=NC(=O)C(c2ccccc2)O1 (stereo not drawn) — what was its AC50? > 30 µM

Param item = COc1ccc(C(=O)N2CCN(c3ccc4c(c3)CCC(=O)N4)CC2)cc1OC ; retrieve measured AC50. > 30 µM

Look up AC50 for this molecule: CN(C)CCCN1c2ccccc2Sc2ccccc21 > 10 µM

# input molecule: CC(C)(N)Cc1ccc(Cl)cc1 ; wanted: its AC50 > 30 µM

* * *

measurement.target: 5-hydroxytryptamine receptor 2A (Homo sapiens, UniProt P28223); note: assay procedure not described here
Sequence (P28223 whole entry): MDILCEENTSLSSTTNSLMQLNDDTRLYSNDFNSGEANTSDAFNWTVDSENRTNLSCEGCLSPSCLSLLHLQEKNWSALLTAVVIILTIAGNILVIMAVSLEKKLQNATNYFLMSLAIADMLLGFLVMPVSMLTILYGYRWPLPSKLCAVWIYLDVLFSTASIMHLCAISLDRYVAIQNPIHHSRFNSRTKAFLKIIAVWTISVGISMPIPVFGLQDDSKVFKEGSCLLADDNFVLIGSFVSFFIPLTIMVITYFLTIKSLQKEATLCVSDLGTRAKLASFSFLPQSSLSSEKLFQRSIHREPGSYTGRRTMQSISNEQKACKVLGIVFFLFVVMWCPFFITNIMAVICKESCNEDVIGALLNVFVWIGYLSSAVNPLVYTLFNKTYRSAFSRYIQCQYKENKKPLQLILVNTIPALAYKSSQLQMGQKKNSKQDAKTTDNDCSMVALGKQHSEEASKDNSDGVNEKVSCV
Type: functional, cell-based
Would you kindly list AC50 for each of these molecules?

Given the molecule CC(=O)OCC(=O)[C@@]12OC3(CCCC3)O[C@@H]1C[C@H]1[C@@H]3CCC4=CC(=O)C=C[C@]4(C)[C@@]3(F)[C@@H](O)C[C@@]12C [AMCINONIDE] , what is its reported AC50? > 10 µM

Need AC50, item NC(CO)C(=O)NNCc1ccc(O)c(O)c1O (centres undefined) [BENSERAZIDE] > 30 µM

// lookup AC50 for O=C(O)CCn1c2c(c3ccccc31)C[C@H](NS(=O)(=O)c1ccc(F)cc1)CC2 > 10 µM

Given CC/C=C\C/C=C\C/C=C\CCCCCCCC(=O)O , state its recorded AC50. > 30 µM

Given the entry CN1CCC2=C(C1)C(c1ccccc1)c1ccccc12 (centres undefined) , report its measured AC50. > 10 µM

Can you share its AC50? I mean this molecule: CC(C)NCC1CCc2cc(CO)c([N+](=O)[O-])cc2N1 (centres undefined) > 30 µM

Look at this molecule and give its reported AC50. Nc1ncnc2c1ncn2[C@@H]1O[C@H](COP(=O)(O)O)[C@@H](O)[C@H]1O [ADENOSINE PHOSPHATE] > 30 µM

Looking for the measured AC50 of O=C(C[S+]([O-])C(c1ccccc1)c1ccccc1)NO (centres undefined) , can you help? > 30 µM

So what does the record say about AC50 for Cc1cc(-c2ccccc2)nnc1NCCN1CCOCC1 ? > 30 µM

* * *

measurement.target: Alpha-2C adrenergic receptor (Homo sapiens); note: assay procedure not described here
Sequence (P18825 whole entry): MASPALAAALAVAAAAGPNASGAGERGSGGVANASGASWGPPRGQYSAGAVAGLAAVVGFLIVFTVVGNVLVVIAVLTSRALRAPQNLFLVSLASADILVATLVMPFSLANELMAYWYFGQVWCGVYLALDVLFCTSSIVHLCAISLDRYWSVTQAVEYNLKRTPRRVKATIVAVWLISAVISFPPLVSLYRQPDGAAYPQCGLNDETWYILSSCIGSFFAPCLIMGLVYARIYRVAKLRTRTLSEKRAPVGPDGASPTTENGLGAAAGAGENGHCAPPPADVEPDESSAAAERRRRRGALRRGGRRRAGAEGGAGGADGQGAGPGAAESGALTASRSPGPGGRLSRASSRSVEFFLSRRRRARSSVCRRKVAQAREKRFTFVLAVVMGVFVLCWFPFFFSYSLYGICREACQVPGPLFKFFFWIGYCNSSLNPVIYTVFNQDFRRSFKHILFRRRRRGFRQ
Assay type: functional
Can you tell me AC50 for the items I'm about to list?

Please look up its AC50: CC(=O)OCC(=O)[C@@]12OC3(CCCC3)O[C@@H]1C[C@H]1[C@@H]3CCC4=CC(=O)C=C[C@]4(C)[C@@]3(F)[C@@H](O)C[C@@]12C [AMCINONIDE] > 10 µM

Report AC50 for CC(C)NNC(=O)c1ccncc1 [IPRONIAZID] please. > 30 µM

What value of AC50 has been reported for the following compound? COc1ccc2cccc(CCNC(C)=O)c2c1 [AGOMELATINE] > 10 µM

Any idea what its AC50 is? The compound is Nc1ncnc2c1ncn2[C@@H]1O[C@H](COP(=O)(O)O)[C@@H](O)[C@H]1O [ADENOSINE PHOSPHATE] > 30 µM
